Listing: pKd of selected compounds
biological target: Somatostatin receptor type 2 (Rattus norvegicus)
pKd is a log-scale quantity: -log10 of the concentration expressed in molar.

Example results:
CN1C[C@H](C(=O)N2CCN(c3ccc(Cl)cc3)CC2)C[C@@H]2c3cccc4[nH]cc(c34)C[C@H]21: 5.66
CN1C[C@H](C(=O)N2CCN(c3ccc([N+](=O)[O-])cc3)CC2)C[C@@H]2c3cccc4[nH]cc(c34)C[C@H]21: 5.50
CN1C[C@H](C(=O)N2CCN(c3ccc4nsnc4n3)CC2)C[C@@H]2c3cccc4[nH]c(Br)c(c34)C[C@H]21: 5.34

Observed pKd on Somatostatin receptor type 2 (Rattus norvegicus), entry CN1C[C@@H](C(=O)N2CCN(c3cccc(=O)n3C)CC2)C[C@H]2c3cccc4[nH]c(Br)c(c34)C[C@@H]21 , equals 4.69

----------
The entries below are paired with their reported Kd.
molecular target: Somatostatin receptor type 3 (Homo sapiens, UniProt P32745); assay: Binding affinity to human recombinant sst3 receptor
Sequence (P32745 whole entry): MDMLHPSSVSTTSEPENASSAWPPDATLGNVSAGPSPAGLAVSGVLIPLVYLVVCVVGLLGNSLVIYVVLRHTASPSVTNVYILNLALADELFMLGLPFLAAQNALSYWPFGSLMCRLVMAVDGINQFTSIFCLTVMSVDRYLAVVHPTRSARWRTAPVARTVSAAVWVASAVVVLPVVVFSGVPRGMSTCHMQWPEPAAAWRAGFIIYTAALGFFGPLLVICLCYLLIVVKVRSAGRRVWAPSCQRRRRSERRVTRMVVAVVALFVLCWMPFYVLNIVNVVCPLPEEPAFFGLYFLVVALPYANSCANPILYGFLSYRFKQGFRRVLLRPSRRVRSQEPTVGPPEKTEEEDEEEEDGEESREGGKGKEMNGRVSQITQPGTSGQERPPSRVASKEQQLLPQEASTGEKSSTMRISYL
Report as a plain number; the unit µM is understood.

CN1C[C@@H](C(=O)N2CCN(c3cccc(=O)n3C)CC2)C[C@H]2c3cccc4[nH]c(Br)c(c34)C[C@@H]21: 5.37
CN1C[C@@H](C(=O)N2CCN(c3ccc4nonc4c3)CC2)C[C@H]2c3cccc4[nH]c(Br)c(c34)C[C@@H]21: 7.24

Hey, Somatostatin receptor type 3 (Homo sapiens, UniProt P32745) data for CN1C[C@H](C(=O)N2CCN(c3ccc4nonc4c3)CC2)C[C@@H]2c3cccc4[nH]c(Br)c(c34)C[C@H]21 : Kd came out at 2.34

----------
target: Somatostatin receptor type 2 (Rattus norvegicus, UniProt P30680)
Sequence (P30680 whole entry): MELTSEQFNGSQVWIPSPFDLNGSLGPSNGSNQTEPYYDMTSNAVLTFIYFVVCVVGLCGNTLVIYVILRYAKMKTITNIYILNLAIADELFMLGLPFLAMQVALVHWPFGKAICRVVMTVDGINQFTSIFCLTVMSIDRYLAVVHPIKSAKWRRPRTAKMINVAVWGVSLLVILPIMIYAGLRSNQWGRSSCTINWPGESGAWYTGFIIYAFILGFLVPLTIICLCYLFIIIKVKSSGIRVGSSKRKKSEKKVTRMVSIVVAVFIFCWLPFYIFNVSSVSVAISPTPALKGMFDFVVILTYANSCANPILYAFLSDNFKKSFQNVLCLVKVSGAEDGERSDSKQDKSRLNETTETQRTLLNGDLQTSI
Recorded Kd for the following compounds
Reply numerically in µM, unit not repeated.

As a guide, the following entries are already answered.
CN1C[C@H](C(=O)N2CCN(c3cccc(=O)n3C)CC2)C[C@@H]2c3cccc4[nH]cc(c34)C[C@H]21: 7.76
CN1C[C@H](C(=O)N2CCN(c3ccc4nsnc4n3)CC2)C[C@@H]2c3cccc4[nH]c(Cl)c(c34)C[C@H]21: 3.89
CN1C[C@H](C(=O)N2CCN(c3ccccn3)CC2)C[C@@H]2c3cccc4[nH]c(I)c(c34)C[C@H]21: 5.62

Hey, Somatostatin receptor type 2 (Rattus norvegicus, UniProt P30680) data for CSc1[nH]c2cccc3c2c1C[C@@H]1[C@@H]3C[C@@H](C(=O)N2CCN(c3ccccn3)CC2)CN1C : Kd came out at 8.51

----------
In this section we review reported Kd values for a set of compounds.
target: Somatostatin receptor type 2 (Rattus norvegicus)

Some compounds with recorded Kd:
CN1C[C@H](C(=O)N2CCN(c3ccc(Cl)cc3)CC2)C[C@@H]2c3cccc4[nH]c(Br)c(c34)C[C@H]21: 2 µM
CN1C[C@H](C(=O)N2CCN(c3ccccn3)CC2)C[C@@H]2c3cccc4[nH]c([S+](C)[O-])c(c34)C[C@H]21 (some centres undefined): 17.8 µM
CN1C[C@H](C(=O)N2CCN(c3ccc4nonc4c3)CC2)C[C@@H]2c3cccc4[nH]c(Br)c(c34)C[C@H]21: 6.46 µM

Note: attention shifts to another entry.
# Kd measured on Somatostatin receptor type 2 (Rattus norvegicus) for item CN1C[C@H](C(=O)N2CCN(c3ccc(F)c(F)c3)CC2)C[C@@H]2c3cccc4[nH]c(Br)c(c34)C[C@H]21 = 8.13 µM
